// data source = patent US20130123462A1

Biological target: GLP-1 receptor (UniProt P43220 24-463, limits assumed)
Sequence (P43220 24-463 limits assumed): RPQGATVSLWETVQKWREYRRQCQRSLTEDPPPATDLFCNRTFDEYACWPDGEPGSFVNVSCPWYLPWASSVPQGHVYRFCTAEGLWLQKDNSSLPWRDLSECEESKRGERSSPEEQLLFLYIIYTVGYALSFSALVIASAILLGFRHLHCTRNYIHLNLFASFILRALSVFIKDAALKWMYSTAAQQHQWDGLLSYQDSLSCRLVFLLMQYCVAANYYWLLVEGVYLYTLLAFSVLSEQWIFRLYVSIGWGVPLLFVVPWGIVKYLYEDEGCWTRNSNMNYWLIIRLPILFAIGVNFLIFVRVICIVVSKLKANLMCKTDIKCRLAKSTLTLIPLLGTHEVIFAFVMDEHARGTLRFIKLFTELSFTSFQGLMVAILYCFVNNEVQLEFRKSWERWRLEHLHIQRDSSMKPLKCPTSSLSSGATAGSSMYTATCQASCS
Test: cell-based or functional assay
Bridges are numbered along the chain shown (N, C = ends). Where no end group is shown, it is not given here. [ ]: non-standard residue; d: D form. PhLac = O=C(O)[C@@H](O)Cc1ccccc1
For each record, write down the corresponding GLP-1 EC50.
Give the value in nM but do not write nM after it.

Ask: Please look at this binder and report its GLP-1 EC50: FTSEYSKYLDERRAQDFVQWLMNTGPSSGAPPPS (lactam 7-11) [E9, K12E16(lactam) Cex glucagon(6-39) (Table 13, peptide 2)]
Reply: 63

Ask: Please look at this binder and report its GLP-1 EC50: FTSEYSKYLDERRAKDFVQWLMNTGPSSGAPPPS (lactam 11-15) [E9, E16K20(lactam) Cex glucagon(6-39) (Table 13, peptide 3)]
Reply: 36

Ask: Please look at this binder and report its GLP-1 EC50: FTSDYSKYLDERRAQDFVQWLMNTGPSSGAPPPS (lactam 7-11; not fully specified) [D9, K12E16(Lactam) Cex glucagon(6-39) (Table 13, peptide 4)]
Reply: 119

Ask: Please look at this binder and report its GLP-1 EC50: [PhLac]TSEYSKYLDERRAQDFVQWLMNTGPSSGAPPPS (lactam 7-11; not fully specified) [[PLA6, E9, K12E16(Lactam)] Cex glucagon(6-39) (Table 13, peptide 5)]
Reply: 6
